Target: T1, human GIP receptor (human) (UniProt P48546)
T1 sequence (looked up): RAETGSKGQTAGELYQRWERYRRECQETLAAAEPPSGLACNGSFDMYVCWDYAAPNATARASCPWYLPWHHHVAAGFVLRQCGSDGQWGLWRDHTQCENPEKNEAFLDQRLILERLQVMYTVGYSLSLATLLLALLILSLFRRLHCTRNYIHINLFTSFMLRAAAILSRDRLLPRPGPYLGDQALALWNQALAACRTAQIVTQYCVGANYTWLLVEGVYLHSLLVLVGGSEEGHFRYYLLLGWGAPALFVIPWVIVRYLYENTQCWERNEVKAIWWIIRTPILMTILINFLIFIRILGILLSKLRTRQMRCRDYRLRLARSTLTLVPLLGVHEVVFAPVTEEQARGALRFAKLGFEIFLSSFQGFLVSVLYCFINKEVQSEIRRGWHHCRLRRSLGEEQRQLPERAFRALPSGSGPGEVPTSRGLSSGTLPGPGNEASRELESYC
Test: cell-based or functional assay
Decide by cAMP EC50: equal to or exceeding 9 pM means MET, less means NOT MET.

Record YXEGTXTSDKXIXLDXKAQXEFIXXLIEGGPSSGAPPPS (Y-Aib-EGT-αMeF(2F)-TSDK((2-[2-(2-Amino-ethoxy)-ethoxy]-acetyl)2-(γ-Glu)-CO-(CH2)10-CH3)-Aib-I-αMeL-LD-Orn-K((2-[2-(2-Amino-ethoxy)-ethoxy]-acetyl)2-(γ-Glu)-CO-(CH2)10-CH3)AQ-Aib-EFI-(D-Glu)-αMeY-LIEGGPSSGAPPPS-NH2) [Example 292] ; criterion: cAMP EC50 no lower than 9 pM. Met? NOT MET

Record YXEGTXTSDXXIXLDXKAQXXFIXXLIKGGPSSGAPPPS (Y-Aib-EGT-αMeF(2F)-TSD-4Pal-Aib-I-αMeL-LD-Orn-K((2-[2-(2-Amino-ethoxy)-ethoxy]-acetyl)2-(γ-Glu)-CO-(CH2)10-CH3)AQ-Aib-4Pal-FI-(D-Glu)-αMeY-LIK((2-[2-(2-Amino-ethoxy)-ethoxy]-acetyl)2-(γ-Glu)-CO-(CH2)10-CH3)GGPSSGAPPPS-NH2) [Example 416] ; criterion: cAMP EC50 no lower than 9 pM. Met? MET

Record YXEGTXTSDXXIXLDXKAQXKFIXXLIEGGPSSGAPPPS (Y-Aib-EGT-αMeF(2F)-TSD-4Pal-Aib-I-αMeL-LD-Orn-K((2-[2-(2-Amino-ethoxy)-ethoxy]-acetyl)-(γ-Glu)-(10-(4-carboxyphenoxy)decanoyl))AQ-Aib-K((2-[2-(2-Amino-ethoxy)-ethoxy]-acetyl)-(γ-Glu)-(10-(4-carboxyphenoxy)decanoyl))FI-(D-Glu)-αMeY-LIEGGPSSGAPPPS-NH2) [Example 360] ; criterion: cAMP EC50 no lower than 9 pM. Met? MET

Record YXEGTXTSDKXIXLDXKAQXEXIXXLIEGGPSSGAPPPS (Y-Aib-EGT-αMeF(2F)-TSDK((2-[2-(2-Amino-ethoxy)-ethoxy]-acetyl)3-(γ-Glu)-CO-(CH2)10-CH3)-Aib-I-αMeL-LD-Orn-K((2-[2-(2-Amino-ethoxy)-ethoxy]-acetyl)3-(γ-Glu)-CO-(CH2)10-CH3)AQ-Aib-E-αMeF-I-(D-Glu)-αMeY-LIEGGPSSGAPPPS-NH2) [Example 436] ; criterion: cAMP EC50 no lower than 9 pM. Met? NOT MET

Record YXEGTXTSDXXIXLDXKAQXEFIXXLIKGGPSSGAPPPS (Y-Aib-EGT-αMeF(2F)-TSD-4Pal-Aib-I-αMeL-LD-Orn-K((2-[2-(2-Amino-ethoxy)-ethoxy]-acetyl)2-(γ-Glu)-CO-(CH2)10-CH3)AQ-Aib-EFI-(D-Glu)-αMeY-LIK((2-[2-(2-Amino-ethoxy)-ethoxy]-acetyl)2-(γ-Glu)-CO-(CH2)10-CH3)GGPSSGAPPPS-NH2) [Example 334] ; criterion: cAMP EC50 no lower than 9 pM. Met? MET
